These entries and their values trace back to patent US9278996B2.

Tested on: breast cancer (MCF-7)
experiment_summary: Anticancer activity assay (WST-8 cell growth), MCF-7
Format: cell-based
assay_setup: Homo sapiens, MCF7, 96 h, read-out: IC50 (nM) MCF-7
Procedure: The compounds of the present invention were assayed for inhibitory activity against 7 cancer cell lines as breast cancer (BT-474), human epithelial cancer (A-431), non-small cell lung cancer (NCI-H460), colon cancer (HT-29), colon cancer (SW-620), breast cancer (MDA-MB-231) and breast cancer (MCF-7). […]
measurement_type: IC50 (nM)
Numbers only, in nM.

Example entries and their recorded answers appear below.
INSERT INTO results (query_smiles, measurement_type, experimental_value) VALUES
  ('CC[C@H](C)[C@@H]([C@@H](CC(=O)N1C[C@H](O)C[C@@H]1[C@H](OC)[C@@H](C)C(=O)NCCc1ccccc1)OC)N(C)C(=O)[C@@H](NC(=O)[C@H](C(C)C)N(C)C)C(C)C', 'IC50', 27),
  ('CC[C@H](C)[C@@H]([C@@H](CC(=O)N1CC(=O)C[C@@H]1[C@H](OC)[C@@H](C)C(=O)NCCc1ccccc1)OC)N(C)C(=O)[C@@H](NC(=O)[C@H](C(C)C)N(C)C)C(C)C', 'IC50', 27);

In the following, a different compound is considered.
Record summary for CC[C@H](C)[C@@H]([C@@H](CC(=O)N1C[C@@H](OC)C[C@H]1[C@H](OC)[C@@H](C)C(=O)NCCc1ccccc1)OC)N(C)C(=O)[C@@H](NC(=O)[C@@H](NC)C(C)C)C(C)C : reported IC50 = 1.82
